The measurements presented in this section are drawn from ChEMBL document CHEMBL1143081.

assay overview: Elimination half life in human
Assay type: ADME, organism-based
details: in vivo
value type: half-life (h)
Kindly provide the numeric value in h only, without the unit symbol.

The molecule listed as CNCC[C@@H](Oc1ccccc1C)c1ccccc1 shows half-life equal to 8

---

# maps each entry to its IC50
target entity: Sodium-dependent serotonin transporter (Homo sapiens, UniProt P31645)
Sequence (P31645 whole entry): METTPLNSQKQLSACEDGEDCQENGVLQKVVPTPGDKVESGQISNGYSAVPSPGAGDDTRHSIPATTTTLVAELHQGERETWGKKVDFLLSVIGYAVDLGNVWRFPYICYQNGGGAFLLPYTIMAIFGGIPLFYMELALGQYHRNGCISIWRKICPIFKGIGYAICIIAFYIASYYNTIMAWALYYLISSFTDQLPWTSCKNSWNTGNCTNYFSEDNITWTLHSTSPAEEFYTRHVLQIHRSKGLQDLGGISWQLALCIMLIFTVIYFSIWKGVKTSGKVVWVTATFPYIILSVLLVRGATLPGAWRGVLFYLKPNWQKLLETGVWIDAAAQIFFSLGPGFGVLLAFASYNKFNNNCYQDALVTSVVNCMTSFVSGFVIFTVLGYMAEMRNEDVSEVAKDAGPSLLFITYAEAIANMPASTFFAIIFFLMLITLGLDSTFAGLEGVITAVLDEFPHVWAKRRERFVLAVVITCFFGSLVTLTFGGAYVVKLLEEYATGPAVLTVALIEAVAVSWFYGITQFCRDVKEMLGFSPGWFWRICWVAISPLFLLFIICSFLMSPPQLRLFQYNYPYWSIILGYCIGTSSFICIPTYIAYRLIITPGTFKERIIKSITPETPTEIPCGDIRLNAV
Kindly provide the numeric value in nM only, without the unit symbol.

The compound listed as NC[C@@H]1C[C@@]1(C(=O)N1CCc2ccccc2C1)c1ccc2c(c1)OCO2 shows IC50 equal to 26

The compound listed as CCN(CC1CC1)C(=O)[C@@]1(c2ccc3c(c2)OCCO3)C[C@H]1CN shows IC50 equal to 540

The compound listed as CCN(CC)C(=O)[C@@]1(c2ccc3occc3c2)C[C@H]1CN shows IC50 equal to 280

The compound listed as CCN(CC)C(=O)C1(c2ccccc2)C(CN)C1c1ccccc1 (racemic) shows IC50 equal to 6400

The compound listed as C#CCN(CC)C(=O)[C@@]1(c2ccc3c(c2)OCCO3)C[C@H]1CN shows IC50 equal to 125

The compound listed as CCN(CC)C(=O)[C@@]1(c2ccc3c(c2)OCCO3)C[C@H]1CN shows IC50 equal to 140

The compound listed as C=CCN(CC)C(=O)C1(c2ccccc2)C(CN)C1c1ccccc1 (racemic) shows IC50 equal to 3400

The compound listed as C=C(F)CN(C)C(=O)[C@@]1(c2ccc3c(c2)OCCO3)C[C@H]1CN shows IC50 equal to 100

The compound listed as CCN(CC)C(=O)[C@@]1(c2cccc(F)c2)C[C@H]1CN shows IC50 equal to 370

The compound listed as C=CCN(CC(=C)F)C(=O)[C@@]1(c2ccc3c(c2)OCCO3)C[C@H]1CN shows IC50 equal to 39

The compound listed as NC[C@@H]1C[C@@]1(C(=O)C1NCc2ccccc21)c1ccc2c(c1)OCO2 (stereo partly specified) shows IC50 equal to 77

The compound listed as C=CCN(CC#CC)C(=O)[C@@]1(c2ccc3c(c2)CCO3)C[C@H]1CN shows IC50 equal to 210

The compound listed as NC[C@@H]1C[C@@]1(C(=O)N1CCc2ccccc21)c1ccc2c(c1)OCO2 shows IC50 equal to 28

---

target entity: Sodium-dependent dopamine transporter (Homo sapiens, UniProt Q01959)
Sequence (Q01959 whole entry): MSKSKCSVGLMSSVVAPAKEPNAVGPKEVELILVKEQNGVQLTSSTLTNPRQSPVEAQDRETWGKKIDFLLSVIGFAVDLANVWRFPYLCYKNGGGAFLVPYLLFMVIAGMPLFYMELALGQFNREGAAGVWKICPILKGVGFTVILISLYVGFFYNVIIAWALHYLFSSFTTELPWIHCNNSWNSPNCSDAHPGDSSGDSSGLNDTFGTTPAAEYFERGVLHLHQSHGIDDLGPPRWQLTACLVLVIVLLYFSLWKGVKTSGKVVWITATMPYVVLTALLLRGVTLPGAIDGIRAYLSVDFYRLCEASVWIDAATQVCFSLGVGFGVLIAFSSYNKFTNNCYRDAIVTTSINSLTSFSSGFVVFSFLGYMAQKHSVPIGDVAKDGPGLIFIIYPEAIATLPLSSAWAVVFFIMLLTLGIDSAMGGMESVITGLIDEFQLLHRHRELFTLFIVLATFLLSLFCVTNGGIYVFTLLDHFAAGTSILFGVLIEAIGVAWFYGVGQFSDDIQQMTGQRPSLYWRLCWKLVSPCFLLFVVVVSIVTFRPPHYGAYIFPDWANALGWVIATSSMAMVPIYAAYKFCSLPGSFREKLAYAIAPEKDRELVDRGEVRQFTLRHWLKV
value type: IC50

The molecule listed as CC1(C)C(CN)C1(C(=O)N1CCc2ccccc21)c1ccccc1 (racemic) shows IC50 equal to > 10 µM

The molecule listed as C#CCN(CC1CC1)C(=O)[C@@]1(c2ccc3c(c2)OCCO3)C[C@H]1CN shows IC50 equal to > 10 µM

The molecule listed as CCN(CC)C(=O)[C@@]1(c2ccc3c(c2)CCC3)C[C@H]1CN shows IC50 equal to > 10 µM

The molecule listed as C#CCN(CC#C)C(=O)[C@@]1(c2ccc3c(c2)OCO3)C[C@H]1CN shows IC50 equal to 4.3 µM

The molecule listed as C=CCN(CC)C(=O)[C@@]1(c2ccc3c(c2)OCCO3)C[C@H]1CN shows IC50 equal to > 10 µM

The molecule listed as C=CCN(CC#CC)C(=O)[C@@]1(c2ccc3c(c2)OCO3)C[C@H]1CN shows IC50 equal to > 10 µM

The molecule listed as C#CCN(CC=C)C(=O)[C@@]1(c2ccc3c(c2)CCO3)C[C@H]1CN shows IC50 equal to > 10 µM

The molecule listed as CCN(CC)C(=O)C1(c2ccccc2)C(CN)C1(C)C (racemic) shows IC50 equal to 4.5 µM

The molecule listed as C=CCN(CC=C)C(=O)[C@@]1(c2ccc3c(c2)CCO3)C[C@H]1CN shows IC50 equal to > 10 µM

The molecule listed as C#CCN(CC)C(=O)[C@@]1(c2ccc3c(c2)OCCO3)C[C@H]1CN shows IC50 equal to > 10 µM

---

assay overview: Lipophilicity, Log D of the compound
Type: physicochemical
details: octanol/water
# maps each entry to its logD
// keep it numeric: no unit symbol after the value

Worked cases, logD given:
CCN(CC)C(=O)[C@@]1(c2ccccc2)C[C@H]1CN [LEVOMILNACIPRAN]    -0.2
CNCC[C@@H](Oc1ccccc1C)c1ccccc1 [ATOMOXETINE]    0.8
CCN(CC)C(=O)[C@@]1(c2ccc3c(c2)OCO3)C[C@H]1CN    0.4

Turning to the following molecule.
The molecule listed as CCN(CC)C(=O)C1(c2ccccc2)CC1CN (racemic) shows logD equal to 0

---

target entity: Sodium-dependent dopamine transporter (Homo sapiens, UniProt Q01959)
# maps each entry to its IC50

Worked cases, IC50 given:
NC[C@@H]1C[C@@]1(C(=O)N1CCc2sccc2C1)c1ccc2c(c1)OCO2    > 10 µM
NC[C@@H]1C[C@@]1(C(=O)C1NCc2ccccc21)c1ccc2c(c1)OCO2 (stereo partly specified)    3.6 µM
C=CCN(CC)C(=O)[C@@]1(c2ccc3c(c2)OCO3)C[C@H]1CN    > 10 µM
C=CCN(CC)C(=O)C1(c2ccccc2)C(CN)C1c1ccccc1 (racemic)    > 10 µM
NC[C@@H]1C[C@@]1(C(=O)N1CCOc2ccccc21)c1ccc2c(c1)OCO2    5.1 µM

Turning to the following compound.
The compound listed as NC[C@@H]1C[C@@]1(C(=O)N1CCc2ccccc2C1)c1ccc2c(c1)OCO2 shows IC50 equal to 3.6 µM

---

assay overview: Renal clearance in human
Format: ADME, organism-based, Kidney
details: in vivo, read-out: CL_renal
value type: CL renal (mL/min)
Kindly provide the numeric value in mL/min only, without the unit symbol.

The compound listed as CCN(CC)C(=O)C1(c2ccccc2)CC1CN (racemic) shows CL renal equal to 350

---

assay overview: Metabolic stability in human liver microsomes assessed as systemic clearance
Type: ADME, Microsome
value type: CLhep predicted (mL/min/kg)
Kindly provide the numeric value in mL/min/kg only, without the unit symbol.

Worked cases, CLhep predicted given:
CCN(CC)C(=O)[C@@]1(c2ccc3c(c2)OCO3)C[C@H]1CN    7.9
CCN(CC)C(=O)[C@@]1(c2ccccc2)C[C@H]1CN    5
CNCC[C@@H](Oc1ccccc1C)c1ccccc1    14.3
CCN(CC)C(=O)[C@@]1(c2ccc3c(c2)OCCO3)C[C@H]1CN    4.4
C#CCN(CC#C)C(=O)[C@@]1(c2ccc3c(c2)OCCO3)C[C@H]1CN    7.9
C=CCN(CC=C)C(=O)[C@@]1(c2ccc3c(c2)OCCO3)C[C@H]1CN    8.1

Turning to the following molecule.
The molecule listed as C=CCN(CC)C(=O)[C@@]1(c2ccc3c(c2)OCCO3)C[C@H]1CN shows CLhep predicted equal to 8.8

---

The following molecules each carry a recorded pIC50 for Sodium-dependent noradrenaline transporter (Homo sapiens).
Remember the convention: pIC50 equals -log10 of concentration in molar.

Worked cases, pIC50 given:
CCN(CC)C(=O)[C@@]1(c2ccc3c(c2)CCO3)C[C@H]1CN    6.80
C=CCN(CC)C(=O)[C@@]1(c2ccc3c(c2)CCO3)C[C@H]1CN    7.74
CCN(CC)C(=O)[C@@]1(c2ccc3c(c2)OCCO3)C[C@H]1CN    8.20
CCN(CC1CC1)C(=O)[C@@]1(c2ccc3c(c2)OCCO3)C[C@H]1CN    8.15
C#CCN(CC#C)C(=O)[C@@]1(c2ccc3c(c2)CCO3)C[C@H]1CN    7.77

The molecule listed as C#CCN(CC#C)C(=O)[C@@]1(c2ccc3c(c2)OCO3)C[C@H]1CN shows pIC50 equal to 8.12

The molecule listed as C#CCN(CC(=C)F)C(=O)[C@@]1(c2ccc3c(c2)OCCO3)C[C@H]1CN shows pIC50 equal to 8.40

The molecule listed as NC[C@@H]1C[C@@]1(C(=O)N1CCc2ccccc2C1)c1ccc2c(c1)OCO2 shows pIC50 equal to 8.19

The molecule listed as C=CCN(CC#CC)C(=O)[C@@]1(c2ccc3c(c2)CCO3)C[C@H]1CN shows pIC50 equal to 7.40

The molecule listed as C=CCN(CC)C(=O)[C@@]1(c2ccc3c(c2)OCCO3)C[C@H]1CN shows pIC50 equal to 8.54

The molecule listed as CCN(CC)C(=O)[C@@]1(c2ccc3c(c2)CCC3)C[C@H]1CN shows pIC50 equal to 6.80

The molecule listed as C=CCN(CC#CC)C(=O)[C@@]1(c2ccc3c(c2)OCO3)C[C@H]1CN shows pIC50 equal to 7.82

---

assay overview: clinical
details: human, in vivo, po
Description: Oral bioavailability in human
value type: bioavailability (%)
Kindly provide the numeric value in % only, without the unit symbol.

The compound listed as CNCC[C@@H](Oc1ccccc1C)c1ccccc1 shows bioavailability equal to 85
